tgt: CYP126A1 (Mycobacterium tuberculosis, UniProt P9WPN9)
Construct: gene cyp126
Sequence (P9WPN9 whole entry): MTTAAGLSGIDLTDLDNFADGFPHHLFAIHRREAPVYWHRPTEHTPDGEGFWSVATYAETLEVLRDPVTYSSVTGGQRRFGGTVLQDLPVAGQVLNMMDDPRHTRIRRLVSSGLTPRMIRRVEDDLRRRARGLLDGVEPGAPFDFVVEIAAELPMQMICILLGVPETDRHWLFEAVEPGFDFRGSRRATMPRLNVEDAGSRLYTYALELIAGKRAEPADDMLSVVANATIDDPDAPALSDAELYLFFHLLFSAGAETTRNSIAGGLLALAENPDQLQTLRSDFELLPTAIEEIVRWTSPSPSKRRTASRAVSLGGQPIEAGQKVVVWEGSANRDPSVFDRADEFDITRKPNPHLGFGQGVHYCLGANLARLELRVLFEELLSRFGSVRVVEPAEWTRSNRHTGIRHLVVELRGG
assay_explanation: UV-visible absorbance titration (heme Soret shift)
Assay type: binding
The threshold is 20 µM. Values of Kd beneath it are tagged MET; values meeting or exceeding it are tagged NOT MET.

Task: Here's an entry: `Cn1c(-c2ccc(-c3nc4ccccc4[nH]3)cc2)nc2cc(N)ccc21` . Is its Kd below 20 µM?
Output: MET

Task: Here's an entry: `c1c[nH]cn1` . Is its Kd below 20 µM?
Output: NOT MET

Task: Here's an entry: O=C(O)C1CSC(c2cc3ccccc3nc2Cl)N1 (centres unmarked) . Is its Kd below 20 µM?
Output: MET

Task: Here's an entry: CC(=O)N1CCN(c2ccc(OC[C@H]3CO[C@](Cn4ccnc4)(c4ccc(Cl)cc4Cl)O3)cc2)CC1 (racemic) . Is its Kd below 20 µM?
Output: MET

Task: Here's an entry: `Clc1ccccc1C(c1ccccc1)(c1ccccc1)n1ccnc1` . Is its Kd below 20 µM?
Output: MET

###

Assignment: determine reported Kd for the given molecules.
tgt: CYP126A1 (Mycobacterium tuberculosis, UniProt P9WPN9)
Construct: gene cyp126
assay_explanation: UV-visible absorbance titration (heme Soret shift)
Type: binding
Respond with the figure and its unit, in that order.

Task: Param readout = Kd; param system = CYP126A1 (Mycobacterium tuberculosis, UniProt P9WPN9); param query = Clc1ccc(COC(Cn2ccnc2)c2ccc(Cl)cc2Cl)cc1 (stereo not drawn) ; response: value
Output: 4 µM

Task: Param readout = Kd; param system = CYP126A1 (Mycobacterium tuberculosis, UniProt P9WPN9); param query = Clc1ccc(COC(Cn2ccnc2)c2ccc(Cl)cc2Cl)c(Cl)c1 (stereo not drawn) ; response: value
Output: 1.3 µM

Task: Param readout = Kd; param system = CYP126A1 (Mycobacterium tuberculosis, UniProt P9WPN9); param query = `O=C(NCCCn1ccnc1)NC12CC3CC(CC(C3)C1)C2` ; response: value
Output: 4.13 µM
